Parameter: GI50. Scope: all listed entries.
system: Hs-578T; test: NCI tumour cell line growth inhibition, 48 h
Active and inactive are the calls of the source. Rule as the data show it: active = GI50 up to about 1.1 µM and inactive = higher.

Field: example entries. Status: answers known.
Cc1ccc(C(=O)N(C2CCCCC2)C2CCCCC2)cc1/N=N/N(C)C	21.3 µM (inactive)
CC(=O)OCC1OC(n2c(S)c(C#N)c(-c3ccccc3)c(C#N)c2=O)C(OC(C)=O)C(OC(C)=O)C1OC(C)=O (stereo not given)	38.8 µM (inactive)
CCOC(=O)C1=C(N)N2C(=N[C@H]3CCCC[C@@H]32)N=C1	> 100 µM (inactive)
CC1(C)[C@@H](Cn2ccc(=O)[nH]c2=O)CC[C@@]1(C)CO	> 100 µM (inactive)
COc1cc2c3c(c1OC)C1(C=CC(=O)C=C1)CC3NCC2 (stereo not given)	> 100 µM (inactive)
CC1=NN(c2cccc(S(=O)(=O)O)c2)C2(C1)SCC(=O)N2c1nc2ccccc2s1 (stereo not given)	> 100 µM (inactive)
Cc1ccc(NC(=S)N/N=C(/c2ccccc2)c2ccccn2)cc1	13.1 µM (inactive)
O=C(/C=C/c1ccccc1)/C=N/N1C(=S)N(c2ccccc2)C(=N\c2ccccc2)/C1=N/c1ccccc1	> 100 µM (inactive)
OCC(O)C(O)C(O)C1SC(c2ccccc2)=NN1c1ccccc1 (stereo not given)	35.1 µM (inactive)

GET /values?readout=GI50&item= N#CN1C2CCC1CC(=O)C2
> 100 µM (inactive)
